system: ERK1/2; test: ERK1/2 phosphorylation assay, AlphaLISA SureFire Ultra (non-genomic activity); type: cell-based; design: unit not given here; conditions: SH-SY5Y cells, serum-free, 30 minutes stimulation
Recorded measurements of Non-genomic activity (ERK½ Phosphorylation Assay) Efficacy (Emax), one per entry
Give your answer as a number; write no unit.

Example results:
Exam item: Annotate the molecule COc1cc2c(cc1C#Cc1ncc(C(=O)O)cn1)C(C)(C)CCC2(C)C [DC706] with its measured Non-genomic activity (ERK½ Phosphorylation Assay) Efficacy (Emax).
Marked response: 36.87

Exam item: Let me know recorded Non-genomic activity (ERK½ Phosphorylation Assay) Efficacy (Emax) for CC1(C)CCC(C)(C)c2cc(C#Cc3ccc(C(=O)O)cc3Cl)ccc21 [DC567] , thanks.
Marked response: 44.46

Exam item: Name the recorded Non-genomic activity (ERK½ Phosphorylation Assay) Efficacy (Emax) of the item CC1(C)CCC(C)(C)c2cc(C#Cc3ccc(C(=O)O)nc3)ccc21 [DC528] in your answer.
Marked response: 69.15

---
Exam item: Give recorded Non-genomic activity (ERK½ Phosphorylation Assay) Efficacy (Emax). CC1(C)CCC(C)(C)c2cc(C#Cc3cc(F)c(C(=O)O)c(F)c3)ccc21 [DC540]
Marked response: 79.73

Exam item: Specify reported Non-genomic activity (ERK½ Phosphorylation Assay) Efficacy (Emax) for the molecule shown: CC1(C)CCC(C)(C)c2cc(C#Cc3ccc(C(=O)O)c(F)c3)ccc21 [DC525]
Marked response: 42.44

Exam item: Note down Non-genomic activity (ERK½ Phosphorylation Assay) Efficacy (Emax) recorded for COc1cc2c(cc1C#Cc1ccc(C(=O)O)cn1)C(C)(C)CCC2(C)C [DC646]
Marked response: 77.63

Exam item: Tell me its Non-genomic activity (ERK½ Phosphorylation Assay) Efficacy (Emax) given Cc1cc2c(cc1C#Cc1ccc(C(=O)O)c(F)c1)C(C)(C)CCC2(C)C [DC667] as the entry.
Marked response: 44.3

Exam item: Look up and report measured Non-genomic activity (ERK½ Phosphorylation Assay) Efficacy (Emax) for this entry: CC1(C)CCC(C)(C)c2nc(C#Cc3ccc(C(=O)O)cc3F)cnc21 [DC712]
Marked response: 94

Exam item: Check the records and state Non-genomic activity (ERK½ Phosphorylation Assay) Efficacy (Emax) for CC1(C)CCC(C)(C)c2nc(C#Cc3ccc(C(=O)O)cc3)cnc21 [DC645]
Marked response: 91.57
